target: His-tagged KRAS G12D protein (Homo sapiens, UniProt P01116, G12D); experiment: KRAS G12D TR-FRET Assay
Sequence (P01116 1-188 isoform P01116-2 G12D): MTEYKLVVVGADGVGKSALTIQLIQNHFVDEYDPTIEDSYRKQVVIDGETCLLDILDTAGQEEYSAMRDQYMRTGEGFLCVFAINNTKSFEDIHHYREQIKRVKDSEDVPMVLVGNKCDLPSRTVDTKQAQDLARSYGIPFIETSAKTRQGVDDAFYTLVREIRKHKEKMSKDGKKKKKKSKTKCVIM
// reported log10 IC50 per item
Measured quantity: log10 IC50 (log10 of the value in nM)

1. CCc1c(F)ccc2cc(O)cc(-c3c(F)cc4c(N5[C@@H]6CC[C@H]5CNC6)nc(OC[C@@H]5C[C@@H](F)CN5C)nc4c3F)c12 0.85
2. CCc1c(F)ccc2cc(O)cc(-c3ccc4c(N5C[C@H]6CC[C@@H](C5)N6)nc(O[C@@H](C)C(C)(C)O)nc4c3F)c12 1.75
3. Oc1cc(-c2c(F)cc3c(N4C[C@H]5COC[C@@H](C4)N5)nc(OC[C@@]45CCCN4C[C@H](F)C5)nc3c2F)c2ccccc2c1 1.30
4. Oc1cc(-c2ccc3c(N4C[C@H]5CC[C@@H](C4)N5)nc(OC[C@@]45CCCN4C[C@H](F)C5)nc3c2F)c2ccccc2c1 0.30
5. CCc1c(F)ccc2cc(O)cc(-c3c(F)cc4c(N5C[C@H]6CC[C@@H](C5)N6)nc(OCC(O)(CC)CC)nc4c3F)c12 1.08

---

Overview of recorded log10 IC50 for various compounds
molecular target: His-tagged KRAS G12D protein (Homo sapiens, UniProt P01116, G12D); test: KRAS G12D TR-FRET Assay
Measured quantity: log10 IC50 (log10 of the value in nM)

1) Oc1cc(-c2cc3nc(OC[C@@]45CCCN4C[C@H](F)C5)nc(N4[C@@H]5CC[C@H]4CNC5)c3cc2F)c2ccccc2c1 1.20
2) CCc1c(F)ccc2cc(O)cc(-c3c(F)cc4c(N5C[C@H]6C[C@@H](C5)N6)nc(OC[C@@]56CCCN5C[C@H](F)C6)nc4c3F)c12 1.41
3) Oc1cc(-c2ccc3c(N4C[C@@H]5CC[C@H]4CN5)nc(OC[C@@]45CCCN4C[C@H](F)C5)nc3c2F)c2ccccc2c1 0.60
4) Oc1cc(-c2ccc3c(N4[C@@H]5CC[C@H]4CNC5)nc(OC[C@]45CCCN4C[C@H](F)C5)nc3c2F)c2ccccc2c1 1.00
5) Oc1cc(-c2c(F)cc3c(N4C[C@H]5CC[C@@H](C4)N5)nc(OC[C@@]45CCCN4C[C@H](F)C5)nc3c2F)c2c(F)cccc2c1 0.48
6) N#Cc1cc(O)cc(-c2c(F)cc3c(N4C[C@H]5CC[C@@H](C4)N5)nc(OC[C@@]45CCCN4C[C@H](F)C5)nc3c2F)c1C1CC1 0.48
7) CCc1c(F)ccc2cc(O)cc(-c3cc4nc(OC[C@@]56CCCN5C[C@H](F)C6)nc(N5C[C@H]6CC[C@@H](C5)N6)c4cc3N)c12 0.78
8) CCc1c(F)ccc2cc(O)cc(-c3c(F)cc4c(N5C[C@H]6CC[C@@H](C5)N6)nc(OC[C@@H]5CC(F)(F)CN5)nc4c3F)c12 0.60
9) Oc1cc(-c2cc3nc(OC[C@@]45CCCN4C[C@H](F)C5)nc(N4C[C@H]5CC[C@@H](C4)N5)c3cc2F)c2c(F)c(F)ccc2c1 0.30
10) Oc1cc(-c2ccc3c(N4[C@@H]5CC[C@H]4CNC5)nc(OC[C@@]45CCCN4C[C@H](F)C5)nc3c2F)c2ccccc2c1 0.60
11) CCc1c(F)ccc2cc(O)cc(-c3ccc4c(N5[C@@H]6CNC[C@H]5COC6)nc(OC[C@@]56CCCN5C[C@H](F)C6)nc4c3F)c12 0.70
12) Cc1c(Cl)cc2[nH]ncc2c1-c1c(F)cc2c(N3C[C@H]4CC[C@@H](C3)N4)nc(OC[C@@]34CCCN3C[C@H](F)C4)nc2c1F 0.85

---

Reported Avg 2 h Coupled Exchange IC50 values are given for each entry in this list.
target: GDP-bound KRAS protein (aa 1-169), containing both G12D and C118A amino acid substitutions (Homo sapiens, UniProt P01116, C118A/G12D); assay: KRAS G12D Coupled Nucleotide Exchange Assay; assay type: biochemical; conditions: 2 h compound pre-incubation
Sequence (P01116 1-169 isoform P01116-2 G12D/C118A): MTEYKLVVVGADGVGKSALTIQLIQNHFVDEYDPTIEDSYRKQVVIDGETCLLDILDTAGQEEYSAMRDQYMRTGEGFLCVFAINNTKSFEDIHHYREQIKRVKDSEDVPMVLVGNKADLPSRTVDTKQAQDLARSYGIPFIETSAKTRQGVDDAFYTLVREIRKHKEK

Compound	Avg 2 h Coupled Exchange IC50 [nM]
CCc1c(F)ccc2cc(O)cc(-c3c(F)cc4c(N5C[C@H]6CC[C@@H](C5)N6)nc(OCC5(C)CCC(=O)N5)nc4c3F)c12 (stereo partly drawn)	9
Fc1cc2c(N3C[C@H]4CC[C@@H](C3)N4)nc(OC[C@@]34CCCN3C[C@H](F)C4)nc2c(F)c1-c1cccc2ccc(F)c(F)c12	3
Cc1c(-c2cc(O)cc3ccc(F)c(F)c23)ccc2c(N3C[C@H]4CC[C@@H](C3)N4)nc(OC[C@@]34CCCN3C[C@H](F)C4)nc12	6
CCc1cccc2cccc(-c3ccc4c(N5C[C@H]6CC[C@@H](C5)N6)nc(OC[C@@]56CCCN5C[C@H](F)C6)nc4c3F)c12	3
Oc1cc(-c2c(F)cc3c(N4C[C@H]5CC[C@@H](C4)N5)nc(OC[C@@]45CCCN4C[C@H](F)C5)nc3c2F)c2c(F)cccc2c1	5
CCc1c(F)ccc2cc(O)cc(-c3c(Cl)cc4c(N5C[C@@H]6CC[C@H]5CN6)nc(OC[C@@]56CCCN5C[C@H](F)C6)nc4c3F)c12	5
CCc1c(F)ccc2cc(O)cc(-c3c(F)cc4c(N5C[C@H]6CC[C@@H](C5)N6)nc(OCC(C)(O)CC)nc4c3F)c12 (stereo partly drawn)	5
Oc1cc(Cl)c(C2CC2)c(-c2c(F)cc3c(N4CC5CCC4CN5)nc(OC[C@@]45CCCN4C[C@H](F)C5)nc3c2F)c1 (stereo in doubt)	3
Oc1cc(-c2ccc3c(N4C[C@H]5C[C@@H](C4)N5)nc(OCC45CCCN4CC(F)(F)C5)nc3c2F)c2ccccc2c1 (stereo partly drawn)	87
Cc1cccc2cccc(-c3ccc4c(N5[C@@H]6CC[C@H]5CNC6)nc(OC[C@@]56CCCN5C[C@H](F)C6)nc4c3F)c12	44
Fc1c(-c2cccc3cccc(Cl)c23)ccc2c(N3[C@@H]4CC[C@H]3CNC4)nc(OC[C@@]34CCCN3C[C@H](F)C4)nc12	16
CCc1c(F)ccc2cc(O)cc(-c3ccc4c(N5C[C@H]6CC[C@@H](C5)N6)nc(OCC5(O)CCC5)nc4c3F)c12	9
C#Cc1c(F)ccc2cc(O)cc(-c3cc4nc(OC[C@@]56CCCN5C[C@H](F)C6)nc(N5C[C@H]6CC[C@@H](C5)N6)c4cc3F)c12	1
Fc1c(-c2c(C(F)(F)F)ccc3[nH]ncc23)ccc2c(N3C[C@H]4CC[C@@H](C3)N4)nc(OC[C@@]34CCCN3C[C@H](F)C4)nc12	10
Oc1cc(-c2c(F)cc3c(N4[C@@H]5CC[C@H]4CNC5)nc(OC[C@@]45CCCN4C[C@H](F)C5)nc3c2F)c2ncccc2c1	21
CCc1c(F)ccc2cc(O)cc(-c3c(Cl)cc4c(N5C[C@H]6CC[C@@H](C5)N6)nc(OC[C@@]56CCCN5C[C@H](F)C6)nc4c3F)c12	7
Oc1cc(-c2c(Cl)cc3c(N4C[C@H]5CC[C@@H](C4)N5)nc(OC[C@]45CCCN4C[C@H](F)C5)nc3c2F)c2ccccc2c1	1
Fc1c(-c2cc(Cl)cc3ccccc23)c(Cl)cc2c(N3C[C@H]4CC[C@@H](C3)N4)nc(OC[C@@]34CCCN3C[C@H](F)C4)nc12	90
CCc1c(F)ccc2cc(O)cc(-c3c(F)cc4c(N5C[C@H]6C[C@@H](C5)N6)nc(OC[C@@]56CCCN5C[C@H](F)C6)nc4c3F)c12	8
Cc1c(-c2cc(O)cc3ccccc23)ccc2c(N3C[C@H]4C[C@@H](C3)N4)nc(OC[C@@]34CCCN3C[C@H](F)C4)nc12	19
CCc1cccc2cc(O)cc(-c3ccc4c(N5CCC6CCC(C5)N6)nc(OC[C@@]56CCCN5C[C@H](F)C6)nc4c3F)c12 (stereo partly drawn)	12
CC(O)COc1nc(N2C[C@H]3CC[C@@H](C2)N3)c2cc(F)c(-c3cc(O)cc4ccccc34)c(F)c2n1 (stereo partly drawn)	39
Fc1c(-c2c(Cl)ccc3[nH]ncc23)ccc2c(N3C[C@H]4CC[C@@H](C3)N4)nc(OC[C@@]34CCCN3C[C@H](F)C4)nc12	20
CCc1cccc2cc(O)cc(-c3ccc4c(N5C[C@@H]6CC[C@H]5CN6)nc(OC[C@@]56CCCN5C[C@H](F)C6)nc4c3F)c12	3

---

biological target: His-tagged KRAS G12D protein (Homo sapiens, UniProt P01116, G12D); experiment: KRAS G12D TR-FRET Assay
pIC50: −log10 of the molar value.
Measured quantity: pIC50

Compound	Measured quantity	Test result
CC(O)COc1nc(N2C[C@H]3CC[C@@H](C2)N3)c2cc(F)c(-c3cc(O)cc4ccccc34)c(F)c2n1 (stereo partly drawn)	pIC50	6.94
Oc1cc(-c2ccc3c(C4=CC5CCC(C4)N5)nc(OC[C@@]45CCCN4C[C@H](F)C5)nc3c2)c2ccccc2c1 (stereo partly drawn)	pIC50	4.93
Oc1cc(-c2ccc3c(N4C[C@H]5CC[C@@H](C4)N5)nc(OC[C@@]45CCCN4C[C@H](F)C5)nc3c2)c2c(F)c(F)ccc2c1	pIC50	8.52
CCc1c(F)ccc2cc(O)cc(-c3ccc4c(N5C[C@H]6CC[C@@H](C5)N6)nc(OCC5(O)CCCC5)nc4c3F)c12	pIC50	8.15
CCc1c(F)ccc2cc(O)cc(-c3cc4nc(OC[C@@]56CCCN5C[C@H](F)C6)nc(N5C[C@@H]6CC[C@H]5CN6)c4cc3F)c12	pIC50	8.40
Nc1ccc(C2CC2)c(-c2ccc3c(N4C[C@H]5CC[C@@H](C4)N5)nc(OC[C@@]45CCCN4C[C@H](F)C5)nc3c2F)n1	pIC50	6.56
